Source listed as patent US20240209086A1.

# Test Target: canine CD3 on canine T cells (canine PBMC) (canine, UniProt P27597 22-202)
# Sequence (P27597 22-202 limits assumed, chain 1 of 3): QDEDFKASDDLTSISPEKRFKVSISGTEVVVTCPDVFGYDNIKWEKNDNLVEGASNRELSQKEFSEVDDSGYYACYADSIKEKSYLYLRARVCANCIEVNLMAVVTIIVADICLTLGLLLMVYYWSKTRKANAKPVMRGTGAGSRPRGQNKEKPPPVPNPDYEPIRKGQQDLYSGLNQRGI
# Sequence (chain, as listed by the source limits assumed, chain 2 of 3): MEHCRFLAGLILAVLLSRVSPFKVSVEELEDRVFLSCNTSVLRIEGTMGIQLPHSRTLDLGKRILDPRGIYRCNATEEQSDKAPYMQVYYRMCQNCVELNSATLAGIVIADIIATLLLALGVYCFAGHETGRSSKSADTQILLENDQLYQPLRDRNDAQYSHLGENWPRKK
# Sequence (chain, as listed by the source limits assumed, chain 3 of 3): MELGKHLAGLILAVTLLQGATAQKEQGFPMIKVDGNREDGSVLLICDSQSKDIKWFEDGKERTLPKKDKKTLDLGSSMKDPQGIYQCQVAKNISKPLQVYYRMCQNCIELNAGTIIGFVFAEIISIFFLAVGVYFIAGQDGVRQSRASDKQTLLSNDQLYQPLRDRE
# Experiment Summary: cell-based or functional assay
Observed Property: Ki67 Proliferation, Day 9, PB
Simply state the number, no unit and no words.

Recorded results for 3 binders are shown here.
[Q] If you can, please state the reported Ki67 Proliferation, Day 9, PB value of PMX192 (monospecific anti-canine CD3, canine IgG-B effector function deficient Fc) (antibody, V domains shown) VH: EVQLVESGGDLVKPAGSLRLSCVASGFTFSDYSMSWVRQAPEKGLQLVAGINGDGSTTYYTDAVKGRFTISRDNAKNTVYLQMNSLRAEDTAMYYCAKGAGTGDFWGQGTLVTVSS VL: SYELTQPPSVNVTLRETAHITCGGASIGRKYVQWIQQIPGQAPVVIIYKDSNRPTGIPERFSGANSGNTATLTISGALAEDEADYYCQVGDSGAWVFGEGTQLTVL .
[A] 1.56

[Q] Ki67 Proliferation, Day 9, PB for PMX166 (monospecific anti-canine CD3, canine IgG-B effector function deficient Fc) (antibody, V domains shown) VH: ELTLQESGPGLVKPSQTLSLTCVVSGGSVTSSYFWNWIRQRPGRGLEWMGYWTGSTIYSPAFQGRISITPDTAKNQFSLQLSSMTTEDTAVYYCSREGGSTLGAFAYWGQGTLVTVSS VL: SYVLTQLPSKNVTLKQPAHITCGGDNIGSKSVHWYQQKLGQAPVLIIYYDSSRPTGIPERFSGANSGNTATLTISGALAEDEADYYCQVWDSSAKASVFGGGTHLTVL ?
[A] 1.28

[Q] Find the recorded Ki67 Proliferation, Day 9, PB belonging to PMX163 (monospecific anti-canine CD3, canine IgG-B effector function deficient Fc) (antibody, V domains shown) VH: ELALQESGPGLVRPSQTLSLTCVVSGGSVTRSYYWNWIRQRPGRGLEWMGYWTGTTIYNPAFQGRISITVDTAKNQFSLHLISMTTEDTAVYYCGREGGSSLGAIAYWGQGTRVTVSS VL: SYVLTQLPSKNVTLKQPAHITCGGDNIGSKSVHWYQQKLGQAPVLIIYYDSSRPTGIPERFSGANSGNTATLTISGALAEDEADYYCQVWDSSAKAAVFGGGTHLTVL and report it.
[A] 0.75

Next:
[Q] Could you tell me which Ki67 Proliferation, Day 9, PB is on file for PMX177 (monospecific anti-canine CD3, canine IgG-B effector function deficient Fc) (antibody, V domains shown) VH: EVTLQESGPGLVKPSQTLSLTCVVSGGSVTSSFYWNWIRQRPGRGLEWMGYWTGSTNYNPAFQGRISITADTAKNQFSLHLGSMTTDDTAMYYCAREEGSWGRVYFDYWGQGTLVTVSS VL: SYVLTQLPSKNVTLKQPAHITCGGDNIGSKSVHWYQQKLGQAPVLIIYYDSSRPTGIPERFSGANSGNTATLTISGALAEDEADYYCQVWDSSTKTWVFGEGTQLTVL ?
[A] 0.47
